target: Vps34 (Homo sapiens, UniProt Q8NEB9); assay: Kinase Glo Luminescent Kinase Assay (Kglo), assay C; type: biochemical; details: read-out: Assay C VPS34 IC50
Sequence (Q8NEB9 whole entry, species assumed): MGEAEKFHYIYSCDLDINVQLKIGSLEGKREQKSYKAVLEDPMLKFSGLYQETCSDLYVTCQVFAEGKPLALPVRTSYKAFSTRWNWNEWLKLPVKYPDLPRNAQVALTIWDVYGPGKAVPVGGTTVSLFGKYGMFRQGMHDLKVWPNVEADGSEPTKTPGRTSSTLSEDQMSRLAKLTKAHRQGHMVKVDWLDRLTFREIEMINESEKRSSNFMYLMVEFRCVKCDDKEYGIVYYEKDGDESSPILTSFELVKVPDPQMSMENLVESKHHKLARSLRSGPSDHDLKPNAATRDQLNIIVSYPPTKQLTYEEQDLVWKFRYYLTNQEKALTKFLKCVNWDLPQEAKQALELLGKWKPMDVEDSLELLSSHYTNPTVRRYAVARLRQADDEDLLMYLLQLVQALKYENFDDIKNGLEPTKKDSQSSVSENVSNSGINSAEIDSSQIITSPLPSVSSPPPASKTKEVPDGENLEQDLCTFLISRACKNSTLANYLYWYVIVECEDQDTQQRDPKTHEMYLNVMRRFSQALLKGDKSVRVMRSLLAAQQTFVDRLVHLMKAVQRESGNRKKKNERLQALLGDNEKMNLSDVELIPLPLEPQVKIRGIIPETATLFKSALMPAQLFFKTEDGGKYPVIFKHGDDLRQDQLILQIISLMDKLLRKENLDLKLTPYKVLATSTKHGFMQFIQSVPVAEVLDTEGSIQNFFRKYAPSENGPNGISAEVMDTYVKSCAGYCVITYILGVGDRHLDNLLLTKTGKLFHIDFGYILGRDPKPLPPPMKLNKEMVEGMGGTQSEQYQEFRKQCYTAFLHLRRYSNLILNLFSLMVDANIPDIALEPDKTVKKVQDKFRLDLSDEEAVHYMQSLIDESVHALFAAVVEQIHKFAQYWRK
pIC50: −log10 of the molar value.
Catalogue of compounds with associated pIC50

| Compound | Measured On | Recorded Metric | Experimental Result |
| --- | --- | --- | --- |
| Cc1ncc(-c2nc(-c3cc(S(=O)(=O)NCC(C)(C)O)ccc3C)cnc2N)s1 | Vps34 (Homo sapiens, UniProt Q8NEB9) | pIC50 | 6.41 |

What value of pIC50 has been recorded for this entry: Cc1ncc(-c2nc(-c3cc(S(=O)(=O)NCC4(C)COC4)ccc3C)cnc2N)s1
5.89

Could you share which pIC50 value was measured for Cc1ncc(-c2nc(-c3cc(S(=O)(=O)NCC(C)(C)O)ccc3C)cnc2N)o1 ?
< 5.00

Can you share its pIC50? I mean this compound: Cc1ccc(S(=O)(=O)NCC2CN(C)CCO2)cc1-c1cnc(N)c(-c2cn(C)nc2C)n1 (stereo not shown)
< 5.00

Requested read-out: pIC50. Entry: Cc1ccc(S(=O)(=O)N[C@H]2CC[C@H](O)CC2)cc1-c1cnc(N)c(-n2cncn2)n1
< 5.04

Name the reported pIC50 value associated with the compound Cc1ccc(S(=O)(=O)NCC2(CO)CCCCC2)cc1-c1cnc(N)c(-n2cncn2)n1
< 5.00

# query: pIC50 of entry Cc1ccc(S(=O)(=O)NCC(C)(C)O)cc1-c1cnc(N)c(-c2nc(C(C)C)no2)n1
< 5.00

Which measured pIC50 value corresponds to Cc1ncc(-c2nc(-c3cc(S(=O)(=O)NCC(C)(C)CO)ccc3C)cnc2N)s1 ?
6.39

May I ask what pIC50 has been recorded for Cc1nnc(-c2nc(-c3cc(S(=O)(=O)NCC(C)(C)O)ccc3C)cnc2N)o1 ?
< 5.00

Record request: pIC50 value, item Cc1ccc(S(=O)(=O)N[C@H]2CC[C@@H](O)CC2)cc1-c1cnc(N)c(-c2cnn(C)c2)n1
5.13

====

assay: Microsomal clearance assay (M); conditions: intrinsic clearance in rat liver microsomes
Recorded Metric: Assay M RLM CI(int) (µL/min/mg)

Below: 3 compounds and their reported Assay M RLM CI(int).
| Compound | Recorded Metric | Experimental Result |
| --- | --- | --- |
| Cc1ncc(-c2nc(-c3cc(S(=O)(=O)NCC4(O)CCOCC4)ccc3C)cnc2N)s1 [Example 45.10] | Assay M RLM CI(int) | 32 |
| Cc1cn(-c2nc(-c3cc(S(=O)(=O)NCC(C)(C)O)ccc3C)cnc2N)c(C)n1 [Example 50] | Assay M RLM CI(int) | 28 |
| CC(C)(O)CCNS(=O)(=O)c1ccc(Cl)c(-c2cnc(N)c(-n3cncn3)n2)c1 [Example 38] | Assay M RLM CI(int) | 89 |

(1) Cc1ncn(-c2nc(-c3cc(S(=O)(=O)NCC(C)(C)O)ccc3C)cnc2N)n1 [Example 25]
(2) Cc1ccc(S(=O)(=O)NOCC(C)(C)O)cc1-c1cnc(N)c(-n2cncn2)n1 [Example 31]
(3) Cc1ccc(S(=O)(=O)NC[C@H]2COCCN2)cc1-c1cnc(N)c(-c2cn(C)nc2C)n1 [Example 128.7]
(4) Cc1cc(-c2nc(-c3cc(S(=O)(=O)NCC(C)(C)CN(C)C)ccc3C)cnc2N)ccn1 [Example 129.24]
(5) Cc1ccc(S(=O)(=O)NCCC(C)(C)O)cc1-c1cnc(N)c(-c2cnn(Cc3cccnc3)c2)n1 [Example 119.38]
Rank ascending by Assay M RLM CI(int). Arrange the labels as the request states and list them.
3, 2, 1, 5, 4
(3: 20 µL/min/mg, 2: 37 µL/min/mg, 1: 71 µL/min/mg, 5: 167 µL/min/mg, 4: 755 µL/min/mg)

====

biological target: PI 3-kinase alpha (Homo sapiens, UniProt P42336); assay: Kinase Glo Luminescent Kinase Assay (Kglo), assay A; type: biochemical; conditions: read-out: Assay A PI3Kα IC50
Sequence (P42336 whole entry): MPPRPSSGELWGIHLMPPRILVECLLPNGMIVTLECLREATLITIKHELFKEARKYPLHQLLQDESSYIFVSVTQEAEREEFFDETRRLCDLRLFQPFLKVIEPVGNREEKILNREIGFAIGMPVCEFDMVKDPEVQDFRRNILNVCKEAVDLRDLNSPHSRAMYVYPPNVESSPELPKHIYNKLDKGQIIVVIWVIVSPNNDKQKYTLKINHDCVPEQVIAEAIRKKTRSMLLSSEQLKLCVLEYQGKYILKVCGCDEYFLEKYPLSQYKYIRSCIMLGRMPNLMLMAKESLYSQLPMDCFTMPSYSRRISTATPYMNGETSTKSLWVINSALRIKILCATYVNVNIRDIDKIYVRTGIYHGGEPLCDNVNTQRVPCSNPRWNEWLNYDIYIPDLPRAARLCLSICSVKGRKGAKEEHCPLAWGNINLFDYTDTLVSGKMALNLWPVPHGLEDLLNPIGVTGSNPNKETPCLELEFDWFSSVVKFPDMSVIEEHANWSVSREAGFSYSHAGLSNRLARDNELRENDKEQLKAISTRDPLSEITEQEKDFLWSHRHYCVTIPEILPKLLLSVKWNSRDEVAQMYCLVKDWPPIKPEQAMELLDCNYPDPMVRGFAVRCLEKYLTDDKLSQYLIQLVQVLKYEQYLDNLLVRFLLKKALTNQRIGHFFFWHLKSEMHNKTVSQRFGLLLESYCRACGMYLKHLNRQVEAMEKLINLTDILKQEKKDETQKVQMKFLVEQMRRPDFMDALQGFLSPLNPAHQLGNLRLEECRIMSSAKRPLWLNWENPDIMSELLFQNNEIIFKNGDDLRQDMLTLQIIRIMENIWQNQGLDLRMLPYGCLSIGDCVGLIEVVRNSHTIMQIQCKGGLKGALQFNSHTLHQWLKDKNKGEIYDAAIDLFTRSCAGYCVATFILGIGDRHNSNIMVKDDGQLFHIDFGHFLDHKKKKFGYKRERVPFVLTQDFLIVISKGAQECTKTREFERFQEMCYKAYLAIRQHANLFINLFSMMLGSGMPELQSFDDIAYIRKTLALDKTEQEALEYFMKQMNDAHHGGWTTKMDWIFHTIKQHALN
Counter-ions that a name gives are not always drawn.
Recorded Metric: IC50 (nM)

| Molecule | Measured On | Unit Of Measure | Experimental Result |
| --- | --- | --- | --- |
| Cc1cc(-c2nc(-c3cc(S(=O)(=O)NCCN(C)C)ccc3C)cnc2N)ccn1 | PI 3-kinase alpha (Homo sapiens, UniProt P42336) | nM | 1600 |
| Cc1ccc(S(=O)(=O)NOCC(C)(C)O)cc1-c1cnc(N)c(-n2cncn2)n1 | PI 3-kinase alpha (Homo sapiens, UniProt P42336) | nM | 160 |
| Cc1ccc(S(=O)(=O)NCCC(C)(C)O)cc1-c1cnc(N)c(-c2cnn(C(C)C)c2)n1 | PI 3-kinase alpha (Homo sapiens, UniProt P42336) | nM | 160 |
| Cc1cc(-c2nc(-c3cc(S(=O)(=O)NCCC(C)(C)O)ccc3C)cnc2N)on1 | PI 3-kinase alpha (Homo sapiens, UniProt P42336) | nM | 420 |
| Cc1cn(-c2nc(-c3cc(S(=O)(=O)N[C@H]4CC[C@H](O)CC4)ccc3C)cnc2N)cn1 | PI 3-kinase alpha (Homo sapiens, UniProt P42336) | nM | 290 |
| Cc1ccc(S(=O)(=O)NOC2CCOC2)cc1-c1cnc(N)c(-n2cncn2)n1 (stereo not shown) | PI 3-kinase alpha (Homo sapiens, UniProt P42336) | nM | 120 |
| Cc1ccc(S(=O)(=O)NC[C@H]2C[C@@H](O)C2)cc1-c1cnc(N)c(-c2cc(C3CC3)no2)n1 | PI 3-kinase alpha (Homo sapiens, UniProt P42336) | nM | 500 |
| CCn1cc(-c2nc(-c3cc(S(=O)(=O)NCCC(C)(C)O)ccc3C)cnc2N)cn1 | PI 3-kinase alpha (Homo sapiens, UniProt P42336) | nM | 180 |

(1) Cc1ccc(S(=O)(=O)N[C@H]2CC[C@H](O)CC2)cc1-c1cnc(N)c(-c2nc(C3CC3)no2)n1
(2) Cc1ccc(S(=O)(=O)NOC(C)(C)C)cc1-c1cnc(N)c(-n2cncn2)n1
// returns 1 or 2 , whichever has the lower IC50 Mark your answer with the label of the selected entry.
1

(1) Cc1cc(-c2nc(-c3cc(S(=O)(=O)NC4CCC(C)(O)CC4)ccc3C)cnc2N)ccn1 (stereo not shown)
(2) Cc1ccc(S(=O)(=O)NC2CCOC2=O)cc1-c1cnc(N)c(-n2cncn2)n1 (stereo not shown)
Select one. Lower IC50: 1 or 2 Bench note: the answer is the label of the chosen record.
1

(1) Cc1csc(-c2nc(-c3cc(S(=O)(=O)NCC(C)(C)O)ccc3C)cnc2N)n1
(2) Cc1ccc(S(=O)(=O)NC[C@@H]2CCNC2)cc1-c1cnc(N)c(-n2cncn2)n1 [Example 127.57, trifluoroacetic acid salt]
Pick one: 1 or 2 . Which has the bigger IC50 number? Write down the label of the entry you select.
2

====

biological target: PI 3-kinase gamma (Homo sapiens, UniProt P48736); assay: TR-FRET Adapta assay, assay E; type: biochemical; conditions: read-out: Assay E PI3Kγ IC50
Sequence (P48736 whole entry): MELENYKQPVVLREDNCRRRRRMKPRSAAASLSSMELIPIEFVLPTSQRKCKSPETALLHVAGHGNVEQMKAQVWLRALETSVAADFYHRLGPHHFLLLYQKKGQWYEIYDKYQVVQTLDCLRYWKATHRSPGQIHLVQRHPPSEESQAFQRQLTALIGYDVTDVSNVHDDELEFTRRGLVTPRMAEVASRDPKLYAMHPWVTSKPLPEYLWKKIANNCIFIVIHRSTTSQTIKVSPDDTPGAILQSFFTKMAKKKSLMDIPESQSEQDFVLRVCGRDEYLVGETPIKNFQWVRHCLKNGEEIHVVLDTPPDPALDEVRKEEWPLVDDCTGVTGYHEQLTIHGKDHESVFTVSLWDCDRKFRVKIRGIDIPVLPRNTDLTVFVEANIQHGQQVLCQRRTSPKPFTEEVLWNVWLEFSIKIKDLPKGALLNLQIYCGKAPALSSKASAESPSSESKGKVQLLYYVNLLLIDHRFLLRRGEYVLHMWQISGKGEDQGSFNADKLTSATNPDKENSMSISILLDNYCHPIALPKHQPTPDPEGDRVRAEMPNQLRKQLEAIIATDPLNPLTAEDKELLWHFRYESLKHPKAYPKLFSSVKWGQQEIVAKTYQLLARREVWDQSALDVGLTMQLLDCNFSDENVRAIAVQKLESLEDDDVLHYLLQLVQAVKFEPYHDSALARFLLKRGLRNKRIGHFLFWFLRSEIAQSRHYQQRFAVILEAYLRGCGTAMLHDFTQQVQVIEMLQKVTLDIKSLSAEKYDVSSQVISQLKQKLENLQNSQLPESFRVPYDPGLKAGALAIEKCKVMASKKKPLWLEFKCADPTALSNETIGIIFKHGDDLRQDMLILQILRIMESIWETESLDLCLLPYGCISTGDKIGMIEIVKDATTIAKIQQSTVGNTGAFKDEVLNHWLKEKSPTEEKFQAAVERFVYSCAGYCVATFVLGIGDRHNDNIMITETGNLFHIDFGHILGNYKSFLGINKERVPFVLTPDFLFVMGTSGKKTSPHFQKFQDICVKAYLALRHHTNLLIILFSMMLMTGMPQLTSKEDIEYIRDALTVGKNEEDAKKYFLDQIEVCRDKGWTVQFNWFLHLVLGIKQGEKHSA
pIC50: −log10 of the molar value.
Recorded Metric: pIC50

Worked examples, 2 molecules total:
| Molecule | pIC50 |
| --- | --- |
| Cc1nnc(-c2nc(-c3cc(S(=O)(=O)N[C@H]4CC[C@H](O)CC4)ccc3C)cnc2N)o1 [Example 1] | 7.82 |
| Cc1ccc(S(=O)(=O)NCC(C)(C)O)cc1-c1cnc(N)c(-c2cnn(CCN(C)C)c2)n1 [Example 142] | 6.57 |

(I) Cc1ccc(S(=O)(=O)NCC2(C)CCCO2)cc1-c1cnc(N)c(-c2cn(C)nc2C)n1 (stereo not shown) [Example 128.4]
(II) Cc1ccc(S(=O)(=O)NCC(C)(C)O)cc1-c1cnc(N)c(-c2cn(C)nn2)n1 [Example 81]
(III) Cc1cc(-c2nc(-c3cc(S(=O)(=O)N[C@H]4CC[C@H](O)CC4)ccc3C)cnc2N)on1 [Example 4]
Rank items: key pIC50, increasing. Rank the items, then write their labels in that order.
II, I, III
(II: 7.11, I: 7.35, III: 7.59)

(P) Cc1cnn(-c2nc(-c3cc(S(=O)(=O)N[C@H]4CC[C@H](O)CC4)ccc3C)cnc2N)c1 [Example 111]
(Q) Cc1nc(C)c(-c2nc(-c3cc(S(=O)(=O)NCC(C)(C)O)ccc3C)cnc2N)s1 [Example 46.1]
(R) Cc1ncc(-c2nc(-c3cc(S(=O)(=O)N[C@H]4C[C@H](O)C4)ccc3C)cnc2N)s1 [Example 43b]
(S) Cc1ccc(S(=O)(=O)NCC2CN(C)CCO2)cc1-c1cnc(N)c(-c2cn(C)nc2C)n1 (stereo not shown) [Example 128.5]
(T) Cc1cc(-c2nc(-c3cc(S(=O)(=O)NC[C@H]4CCNC4)ccc3C)cnc2N)ccn1 [Example 129.36]
Sort ascending by pIC50. Give me the labels in the order the question wants.
S, Q, T, R, P
(S: 6.43, Q: 6.68, T: 6.96, R: 7.38, P: 7.74)

(P) Cc1ccc(S(=O)(=O)NC[C@H]2C[C@@H](O)C2)cc1-c1cnc(N)c(-c2nc(C3CC3)no2)n1 [Example 94]
(Q) COC1(C)CN(S(=O)(=O)c2ccc(C)c(-c3cnc(N)c(-c4cn(C)nc4C)n3)c2)C1 [Example 102]
Hi! Which is lower in terms of pIC50, the first one P or the second one Q ? Your answer should be the label of the entry you select.
Q
(Q: 6.82, P: 7.85)

(A) CCc1noc(-c2nc(-c3cc(S(=O)(=O)NC4CNC4)ccc3C)cnc2N)n1 [Example 137]
(B) Cc1ccc(S(=O)(=O)NCCC(C)(C)O)cc1-c1cnc(N)c(-c2ccc(CO)s2)n1 [Example 119.35]
Which value of pIC50 is greater, the one for A or the one for B ? Identify your pick by its label.
B
